These entries and their values trace back to patent US11564394B2.

Test system: C. albicans ATCC MYA-1003(R) (strain A)
Type: cell-based, Candida albicans
Run parameters: strain A = C. albicans ATCC MYA-1003(R); MIC-0; 48 h at 35° C.
The label Met is reserved for MIC (in parentheses) strictly under 4 µM; Not met covers values equal to or above it.

// query Lab note: confirm whether the reported MIC (in parentheses) for this molecule is below 4 µM, equality not counting. molecule: CC(=O)OC[C@H]1O[C@@H]([S-])[C@H](OC(C)=O)[C@@H](OC(C)=O)[C@@H]1OC(C)=O.CCP(CC)CC.[Au+] [Auranofin, auranofin, reference compound]
// result Not met

// query Lab note: confirm whether the reported MIC (in parentheses) for this molecule is below 4 µM, equality not counting. molecule: CC1CCC(C)[P+]1([Au-][Cl])c1ccccc1[P+]1([Au-][Cl])C(C)CCC1C (stereo not drawn) [Compound 3]
// result Not met

// query Lab note: confirm whether the reported MIC (in parentheses) for this molecule is below 4 µM, equality not counting. molecule: C[C@@H]1[C@H](O)[C@@H](C)/C=C/C=C/C=C/C=C/C=C/C=C/C=C/[C@H](O[C@@H]2O[C@H](C)[C@@H](O)[C@H](N)[C@@H]2O)C[C@@H]2O[C@](O)(C[C@@H](O)C[C@@H](O)[C@H](O)CC[C@@H](O)C[C@@H](O)CC(=O)O[C@H]1C)C[C@H](O)[C@H]2C(=O)O [AmB, amphotericin B, reference compound]
// result Met

// query Lab note: confirm whether the reported MIC (in parentheses) for this molecule is below 4 µM, equality not counting. molecule: [Cl][Au-][P+](c1ccccc1)(c1ccccc1)c1ccccc1[P+]([Au-][Cl])(c1ccccc1)c1ccccc1 [Compound 1]
// result Not met

// query Lab note: confirm whether the reported MIC (in parentheses) for this molecule is below 4 µM, equality not counting. molecule: [Cl-].c1ccc([P+]2(c3ccccc3)c3ccccc3[P+](c3ccccc3)(c3ccccc3)[Au-3]23[P+](c2ccccc2)(c2ccccc2)c2ccccc2[P+]3(c2ccccc2)c2ccccc2)cc1 [Compound 2]
// result Not met

// query Lab note: confirm whether the reported MIC (in parentheses) for this molecule is below 4 µM, equality not counting. molecule: CC1CCC(C)[P+]1([Au-][Cl])c1ccccc1[P+]1([Au-][Cl])C(C)CCC1C (stereo not drawn) [Compound 5]
// result Not met

====

Test system: J774A.1
Test name: Mammalian cytotoxicity assay (resazurin cell viability)
Format: cell-based
Run parameters: J774A.1 (murine macrophage); read-out: IC50 for mammalian cell lines
Endpoint label: pIC50
Scale note: pIC50 = -log10(concentration in M).

// query Observed pIC50 on J774A.1 for CC(=O)OC[C@H]1O[C@@H]([S-])[C@H](OC(C)=O)[C@@H](OC(C)=O)[C@@H]1OC(C)=O.CCP(CC)CC.[Au+] [Auranofin, auranofin, reference compound] , please.
// result 4.79

====

Test system: C. neoformans CN1 (strain N)
Test name: MIC determination (broth microdilution)
Assay type: cell-based, Cryptococcus neoformans
Run parameters: MIC-0, 72 h at 35° C.
MIC (in parentheses) values by entry
Enter your answer as a number in µM; do not include the unit.

1. C[C@@H]1[C@H](O)[C@@H](C)/C=C/C=C/C=C/C=C/C=C/C=C/C=C/[C@H](O[C@@H]2O[C@H](C)[C@@H](O)[C@H](N)[C@@H]2O)C[C@@H]2O[C@](O)(C[C@@H](O)C[C@@H](O)[C@H](O)CC[C@@H](O)C[C@@H](O)CC(=O)O[C@H]1C)C[C@H](O)[C@H]2C(=O)O [AmB, amphotericin B, reference compound]
1.1
2. [Cl][Au-][P+](c1ccccc1)(c1ccccc1)c1ccccc1[P+]([Au-][Cl])(c1ccccc1)c1ccccc1 [Compound 1]
4.3

// query Consider the compound CC(=O)OC[C@H]1O[C@@H]([S-])[C@H](OC(C)=O)[C@@H](OC(C)=O)[C@@H]1OC(C)=O.CCP(CC)CC.[Au+] [Auranofin, auranofin, reference compound] and give its measured MIC (in parentheses).
// result 5.7

// query Consider the compound CC1CCC(C)[P+]1([Au-][Cl])c1ccccc1[P+]1([Au-][Cl])C(C)CCC1C (stereo not drawn) [Compound 5] and give its measured MIC (in parentheses).
// result 20.2

// query Consider the compound [Cl-].c1ccc([P+]2(c3ccccc3)c3ccccc3[P+](c3ccccc3)(c3ccccc3)[Au-3]23[P+](c2ccccc2)(c2ccccc2)c2ccccc2[P+]3(c2ccccc2)c2ccccc2)cc1 [Compound 2] and give its measured MIC (in parentheses).
// result 3.5

====

MIC values by entry
Tested on: C. neoformans CN3 (strain P)
Test name: MIC determination (broth microdilution)
Type: cell-based, Cryptococcus neoformans
Run parameters: MIC-0, 72 h at 35° C.
Enter your answer as a number in µg/mL; do not include the unit.

// query Consider the compound [Cl][Au-][P+](c1ccccc1)(c1ccccc1)c1ccccc1[P+]([Au-][Cl])(c1ccccc1)c1ccccc1 and give its measured MIC.
// result 15.6

// query Consider the compound C[C@@H]1[C@H](O)[C@@H](C)/C=C/C=C/C=C/C=C/C=C/C=C/C=C/[C@H](O[C@@H]2O[C@H](C)[C@@H](O)[C@H](N)[C@@H]2O)C[C@@H]2O[C@](O)(C[C@@H](O)C[C@@H](O)[C@H](O)CC[C@@H](O)C[C@@H](O)CC(=O)O[C@H]1C)C[C@H](O)[C@H]2C(=O)O [AmB, amphotericin B, reference compound] and give its measured MIC.
// result 0.98

// query Consider the compound CC1CCC(C)[P+]1([Au-][Cl])c1ccccc1[P+]1([Au-][Cl])C(C)CCC1C (stereo not drawn) [Compound 5] and give its measured MIC.
// result 7.8

// query Consider the compound CC(=O)OC[C@H]1O[C@@H]([S-])[C@H](OC(C)=O)[C@@H](OC(C)=O)[C@@H]1OC(C)=O.CCP(CC)CC.[Au+] [Auranofin, auranofin, reference compound] and give its measured MIC.
// result 3.9

// query Consider the compound [Cl-].c1ccc([P+]2(c3ccccc3)c3ccccc3[P+](c3ccccc3)(c3ccccc3)[Au-3]23[P+](c2ccccc2)(c2ccccc2)c2ccccc2[P+]3(c2ccccc2)c2ccccc2)cc1 and give its measured MIC.
// result 3.9

====

System: C. parapsilosis ATCC 22019 (strain J)
Test name: MIC determination (broth microdilution)
Assay type: cell-based
Run parameters: strain J = C. parapsilosis ATCC 22019; MIC-0; 48 h; listed as printed beside letter K
Endpoint label: MIC (µg/mL)
Enter your answer as a number in µg/mL; do not include the unit.

1. [Cl-].c1ccc([P+]2(c3ccccc3)c3ccccc3[P+](c3ccccc3)(c3ccccc3)[Au-3]23[P+](c2ccccc2)(c2ccccc2)c2ccccc2[P+]3(c2ccccc2)c2ccccc2)cc1 [Compound 2]
7.8
2. C[C@@H]1[C@H](O)[C@@H](C)/C=C/C=C/C=C/C=C/C=C/C=C/C=C/[C@H](O[C@@H]2O[C@H](C)[C@@H](O)[C@H](N)[C@@H]2O)C[C@@H]2O[C@](O)(C[C@@H](O)C[C@@H](O)[C@H](O)CC[C@@H](O)C[C@@H](O)CC(=O)O[C@H]1C)C[C@H](O)[C@H]2C(=O)O [AmB, amphotericin B, reference compound]
3.9
3. CC1CCC(C)[P+]1([Au-][Cl])c1ccccc1[P+]1([Au-][Cl])C(C)CCC1C (stereo not drawn) [Compound 5]
15.6

Next, consider the following molecule.
// query Observed MIC on C. parapsilosis ATCC 22019 (strain J) for [Cl][Au-][P+](c1ccccc1)(c1ccccc1)c1ccccc1[P+]([Au-][Cl])(c1ccccc1)c1ccccc1 [Compound 1] , please.
// result 15.6
